Numbers sourced from the supplement of paper PMC12350171.

Items are presented alongside their recorded IC25 growth inhibition.
system: Bacteroides uniformis; assay: IC25 growth inhibition; higher = less potent;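 further: lowest concentration where monotonic median growth AUC falls below 0.75 of drug-free control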

Past entries and their recorded results:
Cc1c(OCC(F)(F)F)ccnc1C[S+]([O-])c1nc2ccccc2[nH]1 (stereo not drawn) [Lansoprazole] : ≤ 160 µM
C[C@H]1O[C@H](O[C@H]2[C@H](O)[C@@H](O)[C@@H](O[C@H]3[C@H](O)[C@@H](O)C(O)O[C@@H]3CO)O[C@@H]2CO)[C@H](O)[C@@H](O)[C@@H]1N[C@H]1C=C(CO)[C@@H](O)[C@H](O)[C@H]1O (stereo partly drawn) [Acarbose] : > 160 µM

Noted for OC(Cn1cncn1)(Cn1cncn1)c1ccc(F)cc1F [Fluconazole] : its IC25 growth inhibition reads > 160 µM
